Record: Ki reported on factor Xa (UniProt P00743).
Put your answer as a value accompanied by its unit after it.

compound: Cl.N=C(N)c1cccc(C[C@@H](NC(=O)OC23CC4CC(CC(C4)C2)C3)C(=O)NCCc2ccccc2)c1 [Compound 31, hydrochloride]
system.under.test: factor Xa (UniProt P00743)
value.observed: 74 nM

Turning now to a further record.
Requested field: Ki. Item: COC(=O)[C@@H](Cc1cccc(C(=N)N)c1)NC(=O)OC12CC3CC(CC(C3)C1)C2.Cl [Compound 28, hydrochloride]
390 nM
